target.desc: PARP7 (Homo sapiens (Human))
Sequence (Q7Z3E1 whole entry): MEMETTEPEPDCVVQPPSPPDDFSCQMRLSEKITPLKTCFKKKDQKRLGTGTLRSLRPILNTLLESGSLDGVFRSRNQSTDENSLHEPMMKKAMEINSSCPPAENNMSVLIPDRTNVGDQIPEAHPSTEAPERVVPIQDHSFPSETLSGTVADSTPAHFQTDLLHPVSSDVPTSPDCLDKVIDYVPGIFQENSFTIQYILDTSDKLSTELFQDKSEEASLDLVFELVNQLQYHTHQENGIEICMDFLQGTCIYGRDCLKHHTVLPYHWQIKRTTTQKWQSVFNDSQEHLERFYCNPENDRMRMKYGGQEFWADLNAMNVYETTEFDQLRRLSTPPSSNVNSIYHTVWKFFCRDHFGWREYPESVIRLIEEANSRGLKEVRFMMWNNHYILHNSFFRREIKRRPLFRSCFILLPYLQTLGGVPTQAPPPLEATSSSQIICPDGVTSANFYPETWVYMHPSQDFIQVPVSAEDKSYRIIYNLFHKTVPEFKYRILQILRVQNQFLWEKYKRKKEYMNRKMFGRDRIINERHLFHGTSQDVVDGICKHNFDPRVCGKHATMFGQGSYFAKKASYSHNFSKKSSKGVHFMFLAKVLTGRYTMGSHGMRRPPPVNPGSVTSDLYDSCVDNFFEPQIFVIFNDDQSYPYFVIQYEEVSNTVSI
assay.remarks: Enzymatic assay for inhibition of PARP7: TR-FRET displacement of biotinylated Probe A from the TIPARP active site
run.conditions: Table A-1
Description: 20 nL of a dose response curve of each test compound was spotted in black 384-well polystyrene proxiplates (Perkin Elmer) using a Mosquito (TTP Labtech). […] Reactions were incubated at 25° C. for an additional 30 min, then read on an Envision platereader equipped with a LANCE/DELFIA top mirror (Perkin Elmer) using excitation of 320 nm and emission of 615 nm and 665 nM with a 90 μs delay. […]
Here, each record is paired with measured IC50 data.

compound	IC50
N#Cc1ccc(N2CCN(C(=O)c3ccc(Oc4cccc5c4CN(c4cn[nH]c(=O)c4C(F)(F)F)C5)cc3)CC2)nc1	< 100 nM
C[C@@H](COc1cn[nH]c(=O)c1Cl)OCCC(=O)N1CCN(c2ncc(C(F)(F)F)cn2)CC1 [Example 578 Isomer B]	< 100 nM
N#Cc1ccc(N2CCCC(NC(=O)CCOC[C@@H]3CCCN3c3cn[nH]c(=O)c3C(F)(F)F)C2)nc1 (stereo partly shown)	≥ 1000 nM
N#Cc1ccc(N2CCN(C(=O)C[C@H]3CC[C@@H]([C@@H]4c5ccccc5CN4c4cn[nH]c(=O)c4C(F)(F)F)O3)CC2)nc1 (single isomer, unassigned) [Example 612 Isomer B]	< 100 nM
